Target entity: T1, alpha subunit of the human FcεRI receptor expressed on cells (human, UniProt P12319 26-257)
T1 construct: whole, on cells; on rat basophil RBL-48 cells in the histamine release assay; also called CHO FcεRI+ cells; cell surface expressed FcεRI
T1 sequence (looked up): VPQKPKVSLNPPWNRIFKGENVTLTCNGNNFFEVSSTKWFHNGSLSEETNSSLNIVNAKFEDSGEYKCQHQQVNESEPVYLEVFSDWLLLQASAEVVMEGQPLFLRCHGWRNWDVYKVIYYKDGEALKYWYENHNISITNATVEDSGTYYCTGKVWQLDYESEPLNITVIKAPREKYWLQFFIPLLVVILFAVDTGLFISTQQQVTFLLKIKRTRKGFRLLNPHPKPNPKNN
Assay details: inhibition of 125I-IgE binding to CHO cells expressing human FcεRI alpha
Bridges are numbered along the chain shown (N, C = ends). Where no end group is shown, it is not given here.
Reported fold reduction in binding (against IGE063) values follow for various binders
Quantity: fold reduction in binding (against IGE063) (fold)

binder="Ac-NLPRCTAGPWGWVCMAAD-NH2 (disulfide 5-14 (inferred), also called E7A) [IGE059]" censoring_qualifier== observed_value=6
binder="NLPRCTEGPWGAVCM (disulfide 5-14 (inferred), also called W12A) [IGE073]" censoring_qualifier== observed_value=65
binder="NLPRCTEGAWGWVCM (disulfide 5-14 (inferred), also called P9A) [IGE070]" censoring_qualifier=> observed_value=500
binder="NLPRCTEGPWAWVCM (disulfide 5-14 (inferred)) [IGE074]" censoring_qualifier== observed_value=30
binder="NLPRCTEAPWGWVCM (disulfide 5-14 (inferred), also called G8A) [IGE079]" censoring_qualifier== observed_value=256
binder="Ac-NLPRCTEGPWGWVC (disulfide 5-14 (inferred)) [IGE082]" censoring_qualifier=> observed_value=400
